- RUN_DESCRIPTION: Acid resistance (half-life period)
- Type: physicochemical
- RUN_PARAMETERS: acid ph 1.3; Temperature 37° C, pH 1.3; Table 2, cyclopropyl series; read-out: τ1/2 half-life period (acid resistance)
// reported half-life for each item listed
The figure you give is taken to be in min; do not add the unit.

MOLECULE: CCCCOc1cccc(C2(C(=O)N[C@@H]3C(=O)N4[C@@H]3SC(C)(C)[C@@H]4C(=O)O)CC2)c1 [Compound XI (Table 2)]
QUANTITATIVE_RESULT: 6.2
//
MOLECULE: CC(C)Oc1cccc(C2(C(=O)N[C@@H]3C(=O)N4[C@@H]3SC(C)(C)[C@@H]4C(=O)O)CC2)c1 [Compound X (Table 2)]
QUANTITATIVE_RESULT: 10.5
//
MOLECULE: CCOc1cccc(C2(C(=O)NC3C(=O)N4C3SC(C)(C)C4C(=O)O)CC2)c1 (stereo not shown) [Compound VIII (Table 2)]
QUANTITATIVE_RESULT: 7.3
//
MOLECULE: CCOc1ccccc1C1(C(=O)NC2C(=O)N3C2SC(C)(C)C3C(=O)O)CC1 (stereo not shown) [Compound III (Table 2)]
QUANTITATIVE_RESULT: 6
//
MOLECULE: CCCCOc1ccccc1C1(C(=O)NC2C(=O)N3C2SC(C)(C)C3C(=O)O)CC1 (stereo not shown) [Compound VI (Table 2)]
QUANTITATIVE_RESULT: 5.2
//
MOLECULE: CCCOc1ccccc1C1(C(=O)NC2C(=O)N3C2SC(C)(C)C3C(=O)O)CC1 (stereo not shown) [Compound IV (Table 2)]
QUANTITATIVE_RESULT: 5.8

Proceeding to the next molecule to report its half-life.
input: Looking for the measured half-life of CCCOc1cccc(C2(C(=O)N[C@@H]3C(=O)N4[C@@H]3SC(C)(C)[C@@H]4C(=O)O)CC2)c1 [Compound IX (Table 2)] , can you help?
output: 14.5

###

- System: E.coli O-55
- RUN_DESCRIPTION: Minimal bacteriostatic concentration
- Format: cell-based
- RUN_PARAMETERS: Escherichia coli, O55, read-out: Minimal Bacteriostatic Concentration
MEASURED_PARAMETER: MIC (µg/mL)
Kindly provide the numeric value in µg/mL only, without the unit symbol.

Examples with answers:
COMPOUND: CCCOc1ccc(C2(C(=O)NC3C(=O)N4C3SC(C)(C)C4C(=O)O)CCCC2)cc1 (stereo not shown) [Compound XIV (Table 1)]
MEASURED_TARGET: E.coli O-55
MIC (µg/mL): 125

COMPOUND: CC1(C)S[C@@H]2[C@H](NC(=O)Cc3ccccc3)C(=O)N2[C@H]1C(=O)O [Benzyl Penicillin, benzylpenicillin, reference compound]
MEASURED_TARGET: E.coli O-55
MIC (µg/mL): 31.2

COMPOUND: CC(C)Oc1cccc(C2(C(=O)NC3C(=O)N4C3SC(C)(C)C4C(=O)O)CCCC2)c1 (stereo not shown) [Compound X (Table 1)]
MEASURED_TARGET: E.coli O-55
MIC (µg/mL): 250

COMPOUND: CCCCOc1ccc(C2(C(=O)NC3C(=O)N4C3SC(C)(C)C4C(=O)O)CCCC2)cc1 (stereo not shown) [Compound XVI (Table 1)]
MEASURED_TARGET: E.coli O-55
MIC (µg/mL): 125

COMPOUND: COc1ccc(C2(C(=O)NC3C(=O)N4C3SC(C)(C)C4C(=O)O)CCCC2)cc1 (stereo not shown) [Compound XII (Table 1)]
MEASURED_TARGET: E.coli O-55
MIC (µg/mL): 125

COMPOUND: CCCOc1cccc(C2(C(=O)NC3C(=O)N4C3SC(C)(C)C4C(=O)O)CCCC2)c1 (stereo not shown) [Compound IX (Table 1)]
MEASURED_TARGET: E.coli O-55
MIC (µg/mL): 250

input: Param item = CCOc1ccc(C2(C(=O)NC3C(=O)N4C3SC(C)(C)C4C(=O)O)CCCC2)cc1 (stereo not shown) [Compound XIII (Table 1)] ; retrieve measured MIC.
output: 62.5

input: I'd like to know its MIC. The compound in question is CCCCOc1cccc(C2(C(=O)NC3C(=O)N4C3SC(C)(C)C4C(=O)O)CCCC2)c1 (stereo not shown) [Compound XI (Table 1)]
output: 125

input: Quick one: MIC of CC(C)Oc1ccc(C2(C(=O)NC3C(=O)N4C3SC(C)(C)C4C(=O)O)CCCC2)cc1 (stereo not shown) [Compound XV (Table 1)] ?
output: 25

input: # query: MIC of entry CCOc1cccc(C2(C(=O)NC3C(=O)N4C3SC(C)(C)C4C(=O)O)CCCC2)c1 (stereo not shown) [Compound VIII (Table 1)]
output: 250

###

- RUN_DESCRIPTION: in vivo
- RUN_PARAMETERS: mouse, iv
MEASURED_PARAMETER: MTD (mg/kg)
Expressed in mg/kg, but write only the number.

input: Entry COc1cccc(C2(C(=O)N[C@@H]3C(=O)N4[C@@H]3SC(C)(C)[C@@H]4C(=O)O)CCC2)c1 has what MTD?
output: 1500

input: Suppose we examine the compound CC(C)Oc1ccc(C2(C(=O)N[C@@H]3C(=O)N4[C@@H]3SC(C)(C)[C@@H]4C(=O)O)CCC2)cc1 ; what MTD value has been reported?
output: 500

input: Look up MTD: CCOc1ccc(C2(C(=O)NC3C(=O)N4C3SC(C)(C)C4C(=O)O)CCCC2)cc1 (stereo not shown)
output: 1500

###

MIC by entry:
- System: E.coli O-55
- RUN_DESCRIPTION: Minimal bacteriostatic concentration
- Type: cell-based
- RUN_PARAMETERS: Escherichia coli, O55; E.coli O-55; sodium salts; read-out: Minimal Bacteriostatic Concentration
Response body: numeric value in µg/mL, unit text excluded.

Some compounds with recorded MIC:
COMPOUND: CC1(C)SC2C(NC(=O)C3(c4ccccc4)CCCC3)C(=O)N2C1C(=O)O (stereo not shown)
MIC (µg/mL): 500
//
COMPOUND: CCCCOc1ccccc1C1(C(=O)NC2C(=O)N3C2SC(C)(C)C3C(=O)O)CCCC1 (stereo not shown)
MIC (µg/mL): 500
//
COMPOUND: COc1ccccc1C1(C(=O)NC2C(=O)N3C2SC(C)(C)C3C(=O)O)CCCC1 (stereo not shown)
MIC (µg/mL): 250
//
COMPOUND: CC(C)Oc1ccccc1C1(C(=O)NC2C(=O)N3C2SC(C)(C)C3C(=O)O)CCCC1 (stereo not shown)
MIC (µg/mL): 500

input: Record request: MIC value, item CCOc1ccccc1C1(C(=O)NC2C(=O)N3C2SC(C)(C)C3C(=O)O)CCCC1 (stereo not shown)
output: 500

input: Reported MIC, compound COc1cccc(C2(C(=O)NC3C(=O)N4C3SC(C)(C)C4C(=O)O)CCCC2)c1 (stereo not shown) : ____
output: 250

###

The listing below reports MIC for compounds tested on Staph. albus.
Provide only the numeric value, understood in µg/mL.

See these solved cases before continuing.
COMPOUND: CCOc1ccccc1C1(C(=O)NC2C(=O)N3C2SC(C)(C)C3C(=O)O)CCCC1 (stereo not drawn)
MEASURED_PARAMETER: MIC
UNIT_STRING: µg/mL
QUANTITATIVE_RESULT: 0.39
--
COMPOUND: CCCOc1ccc(C2(C(=O)NC3C(=O)N4C3SC(C)(C)C4C(=O)O)CCCC2)cc1 (stereo not drawn)
MEASURED_PARAMETER: MIC
UNIT_STRING: µg/mL
QUANTITATIVE_RESULT: 0.09

Now look at this entry.
input: Sample COc1ccccc1C1(C(=O)NC2C(=O)N3C2SC(C)(C)C3C(=O)O)CCCC1 (stereo not drawn) — what was its MIC?
output: 0.9

###

- RUN_DESCRIPTION: Acid resistance (half-life period)
- Assay type: physicochemical
- RUN_PARAMETERS: acid ph 1.3; Temperature 37° C, pH 1.3; Table 3, cyclobutyl series; read-out: τ1/2 half-life period (acid resistance)
MEASURED_PARAMETER: half-life (min)
Dear colleague, please return just the value in min, with no unit written.

Example cases with answers are listed next.
STRUCTURE_NOTATION: CCCCOc1ccc(C2(C(=O)N[C@@H]3C(=O)N4[C@@H]3SC(C)(C)[C@@H]4C(=O)O)CCC2)cc1
MEASURED_PARAMETER: half-life
QUANTITATIVE_RESULT: 25.6

STRUCTURE_NOTATION: CCOc1cccc(C2(C(=O)N[C@@H]3C(=O)N4[C@@H]3SC(C)(C)[C@@H]4C(=O)O)CCC2)c1
MEASURED_PARAMETER: half-life
QUANTITATIVE_RESULT: 23.8

STRUCTURE_NOTATION: CCOc1ccc(C2(C(=O)N[C@@H]3C(=O)N4[C@@H]3SC(C)(C)[C@@H]4C(=O)O)CCC2)cc1
MEASURED_PARAMETER: half-life
QUANTITATIVE_RESULT: 190

STRUCTURE_NOTATION: CCCOc1ccc(C2(C(=O)N[C@@H]3C(=O)N4[C@@H]3SC(C)(C)[C@@H]4C(=O)O)CCC2)cc1
MEASURED_PARAMETER: half-life
QUANTITATIVE_RESULT: 27.3

STRUCTURE_NOTATION: COc1ccc(C2(C(=O)N[C@@H]3C(=O)N4[C@@H]3SC(C)(C)[C@@H]4C(=O)O)CCC2)cc1
MEASURED_PARAMETER: half-life
QUANTITATIVE_RESULT: 10.7

STRUCTURE_NOTATION: CCOc1ccccc1C1(C(=O)N[C@@H]2C(=O)N3[C@@H]2SC(C)(C)[C@@H]3C(=O)O)CCC1
MEASURED_PARAMETER: half-life
QUANTITATIVE_RESULT: 19.1

STRUCTURE_NOTATION: CCCOc1cccc(C2(C(=O)N[C@@H]3C(=O)N4[C@@H]3SC(C)(C)[C@@H]4C(=O)O)CCC2)c1
MEASURED_PARAMETER: half-life
QUANTITATIVE_RESULT: 20.1

STRUCTURE_NOTATION: CCCCOc1cccc(C2(C(=O)N[C@@H]3C(=O)N4[C@@H]3SC(C)(C)[C@@H]4C(=O)O)CCC2)c1
MEASURED_PARAMETER: half-life
QUANTITATIVE_RESULT: 46.6

// moving on: another record for half-life
input: What half-life value was documented for this compound, CC(C)Oc1ccc(C2(C(=O)N[C@@H]3C(=O)N4[C@@H]3SC(C)(C)[C@@H]4C(=O)O)CCC2)cc1 ?
output: 60.1

Data provenance: patent US4130559A
